Ref: patent US20120245104A1

Assign IC50 (half maximal inhibitory concentration), inhibition of leptin-induced cell growth to each entry below.
Target: T1, leptin receptor (ObR) (UniProt P48357 22-1165, limits assumed)
T1 sequence (looked up): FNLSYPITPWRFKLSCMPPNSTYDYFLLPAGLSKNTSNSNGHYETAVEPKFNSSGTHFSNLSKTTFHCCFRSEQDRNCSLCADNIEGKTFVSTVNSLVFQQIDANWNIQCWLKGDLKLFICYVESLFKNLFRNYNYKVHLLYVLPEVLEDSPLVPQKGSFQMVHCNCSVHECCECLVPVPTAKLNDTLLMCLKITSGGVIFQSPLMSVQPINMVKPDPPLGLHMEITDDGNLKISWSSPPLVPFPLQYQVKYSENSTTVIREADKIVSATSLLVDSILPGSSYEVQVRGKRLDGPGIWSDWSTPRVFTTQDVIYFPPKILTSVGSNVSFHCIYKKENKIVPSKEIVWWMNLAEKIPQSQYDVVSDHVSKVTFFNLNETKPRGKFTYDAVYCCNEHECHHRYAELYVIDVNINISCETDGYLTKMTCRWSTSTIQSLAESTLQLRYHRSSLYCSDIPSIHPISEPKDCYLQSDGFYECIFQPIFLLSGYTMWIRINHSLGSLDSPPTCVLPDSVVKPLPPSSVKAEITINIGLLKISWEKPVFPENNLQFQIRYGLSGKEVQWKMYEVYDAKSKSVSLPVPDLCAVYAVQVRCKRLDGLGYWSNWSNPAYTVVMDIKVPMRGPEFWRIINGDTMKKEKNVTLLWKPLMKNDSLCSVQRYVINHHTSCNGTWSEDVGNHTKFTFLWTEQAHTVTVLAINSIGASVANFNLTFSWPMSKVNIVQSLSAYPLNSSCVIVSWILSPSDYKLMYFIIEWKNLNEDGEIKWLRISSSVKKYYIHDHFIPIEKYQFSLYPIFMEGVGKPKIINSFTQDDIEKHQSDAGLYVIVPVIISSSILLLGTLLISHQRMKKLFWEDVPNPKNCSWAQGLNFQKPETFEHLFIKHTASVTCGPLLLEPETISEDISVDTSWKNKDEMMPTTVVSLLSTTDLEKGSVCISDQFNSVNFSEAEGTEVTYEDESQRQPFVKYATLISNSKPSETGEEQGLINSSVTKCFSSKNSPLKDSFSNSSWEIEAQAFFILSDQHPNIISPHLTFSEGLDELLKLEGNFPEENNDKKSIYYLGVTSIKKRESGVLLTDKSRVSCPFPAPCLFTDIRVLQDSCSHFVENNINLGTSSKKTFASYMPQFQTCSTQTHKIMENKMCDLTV
Assay: cell-based or functional assay
Where no end group is shown, it is not given here.
The number alone won't do; follow it with the unit.

Record excerpt, results attached:
1. VQDDIKTLIKTIVTRINDI-NH2 [Truncated LPA-1 (6-24), T10 Ile substitution] | 21 nM
2. VQDDVKTLIKTIVTRINDI-NH2 [Truncated LPA-1 (6-24), T10 Val substitution] | 20.7 nM

// for each binder below, give its IC50 (half maximal inhibitory concentration), inhibition of leptin-induced cell growth
1. NVIQISNVLENLRDLLHV-NH2 [Truncated LPA-2 (72-89), D79 Val substitution]
2. NVIQISNDLENLRDLLHV-NH2 [Truncated LPA-2 (72-89), D79 (original amino acid)]
3. NVIQISNLLENLRDLLHV-NH2 [Truncated LPA-2 (72-89), D79 Leu substitution]
4. NVIQISNILENLRDLLHV-NH2 [Truncated LPA-2 (72-89), D79 Ile substitution]
5. VQDDAKTLIKTIVTRINDI-NH2 [Truncated LPA-1 (6-24), T10 Ala substitution]

A:
1. 15.6 nM
2. 32 nM
3. 16 nM
4. 16 nM
5. 88 nM
